Tested system: α5β3γ2 GABAA/BzR (Homo sapiens, UniProt P18507+P31644)
Experiment description: Competition binding to HEK cell membranes, α5β3γ2
Design: expressed in transfected cells
Experimental parameters: Figure 17; read-out: Binding data Ki α5
Assay readout: Ki

- Molecule: "CCOC(=O)c1ncn2c1CN=C(c1ccccc1)c1cc(-c3ccccc3)ccc1-2 [DM-I-81 (9)]"
  Reported value: "176 nM"

---

Tested system: α1β3γ2 GABAA/BzR (Homo sapiens, UniProt P14867+P18507)
Experiment description: Competition binding to HEK cell membranes, α1β3γ2
Set-up: expressed in transfected cells
Experimental parameters: read-out: Ki α1
Item-by-item account of log10 Ki
Assay readout: log10 Ki (log10 of the value in nM)

- Compound: "COc1ccc2c(c1)C(=O)N1CC[C@H]1c1c(C(=O)OC(C)(C)C)ncn1-2"
  Reported value: 1.96
- Compound: "COc1ccc(-n2nc3c4ccc(OC)cc4[nH]cc-3c2=O)cc1"
  Reported value: -0.47
- Compound: "CN1Cc2c(C(=O)OC3CC3)ncn2-c2ccc(Cl)cc2C1=O"
  Reported value: 1.21
- Compound: "Cc1nnc2n1-c1ccc(Br)cc1C(c1ccccc1)=NC2"
  Reported value: 0.45
- Compound: "O=C(OCC(F)(F)F)c1cc2c(cn1)[nH]c1ccccc12"
  Reported value: 0.48
- Compound: "CCOC(=O)c1ncn2c1CN=C(c1ccccc1F)c1cc(Br)ccc1-2"
  Reported value: 0.49
- Compound: "C#Cc1ccc2c(c1)C(c1ccccc1)=NCC(NC)=N2"
  Reported value: 1.04
- Compound: "CN1Cc2c(C(=O)OC(C)(C)C)ncn2-c2ccc(C#C[Si](C)(C)C)cc2C1=O"
  Reported value: 2.29
- Compound: "C#Cc1ccc2c(c1)C(c1cccs1)=NCc1c(C(=O)OCC)ncn1-2"
  Reported value: 2.03
- Compound: "C#Cc1ccc2c(c1)C(=O)N1CCCC1c1c(C(=O)OC(C)(C)C)ncn1-2 (stereo not shown)"
  Reported value: 2.27
- Compound: "CC(C)(C)OC(=O)c1cc2c(cn1)[nH]c1ccc(-c3ccccc3)cc12"
  Reported value: 0.56
- Compound: "CC[C@H](C)OC(=O)c1ncn2c1[C@@H]1CCCN1C(=O)c1cc(I)ccc1-2 [CM-B31i (ss)]"
  Reported value: 1.95
- Compound: "CC(OC(=O)c1ncn2c1C1CCCN1C(=O)c1ccccc1-2)C(F)(F)F (stereo not shown)"
  Reported value: 1.11
- Compound: "O=C(O)c1ncn2c1CN=C(c1ccccc1F)c1cc(Br)ccc1-2"
  Reported value: 0.44
- Compound: "COc1ccc2c(c1)C(=O)N1CCC1c1c(C(=O)OC(C)(C)C)ncn1-2 (stereo not shown)"
  Reported value: 1.96
- Compound: "CCOC(=O)c1cc2c(cn1)[nH]c1ccc(I)cc12"
  Reported value: 0.68
- Compound: "c1ccc2c(c1)[nH]c1cnc3c4cccnc4[nH]c3c12 [LJD-III-15E]"
  Reported value: 0.29
- Compound: "C#Cc1ccc2c(c1)C(=O)N1CCC[C@H]1c1c(C(=O)OCC(F)(F)F)ncn1-2"
  Reported value: 2.31
- Compound: "C#Cc1ccc2c(c1)C(c1ccccc1F)=NCc1c(C(=O)OCC(F)(F)F)ncn1-2"
  Reported value: 0.03
- Compound: "O=C(OCC(F)(F)F)c1ncn2c1C1CCCN1C(=O)c1cc(-c3ccco3)ccc1-2 (stereo not shown)"
  Reported value: 3.70
- Compound: "COc1ccc2c(c1)C(=O)N1CCC[C@H]1c1c(C(=O)OCC(F)(F)F)ncn1-2 [CM-E09a]"
  Reported value: 2.25
- Compound: "CC(C)c1nc(-c2ncn3c2CN(C)C(=O)c2c(Cl)cccc2-3)no1 [FG8205, reference compound]"
  Reported value: -0.40
- Compound: "CCOC(=O)c1ncc2[nH]c3cc(OC)c(OC)cc3c2c1CC"
  Reported value: 0.79
- Compound: "O=C(OCC(F)(F)F)c1ncn2c1CN=C(c1ccccc1F)c1cc(Br)ccc1-2"
  Reported value: 0.27
- Compound: "C#Cc1ccc2c(c1)C(c1ccccc1Cl)=NCC(=O)N2C"
  Reported value: 0.19
- Compound: "C=Cc1ccc2c(c1)C(=O)N1CCC[C@H]1c1c(C(=O)OC(C)(C)C)ncn1-2"
  Reported value: 1.45
- Compound: "CCC(C)OC(=O)c1ncn2c1C1CCCN1C(=O)c1cc(F)ccc1-2 (stereo not shown)"
  Reported value: 1.51
- Compound: "COc1ccc2c(c1)C(=O)N(C)Cc1c(C(=O)OC(C)(C)C)ncn1-2"
  Reported value: 0.83
- Compound: "CN1Cc2c(C(=O)OC(C)(C)C)ncn2-c2ccc(O)cc2C1=O"
  Reported value: 0.18
- Compound: "CCOC(=O)c1cc2c(cn1)[nH]c1ccccc12 [BCCE, reference compound]"
  Reported value: 0.08
- Compound: "O=C(OCC(F)(F)F)c1ncn2c1[C@@H]1CCCN1C(=O)c1ccccc1-2"
  Reported value: 1.51
- Compound: "C#Cc1ccc2c(c1)C(=O)N(C)Cc1c(C(=O)OC(C)(C)C)ncn1-2"
  Reported value: 1.43
- Compound: "COCc1ncn2c1CN(C)C(=O)c1cc(Cl)ccc1-2"
  Reported value: 2.56
- Compound: "C#Cc1ccc2c(c1)C(c1ccccc1)=NCc1c(C(=O)OCC(F)(F)F)ncn1-2"
  Reported value: 1.73
- Compound: "C#Cc1ccc2c(c1)C(c1ccccc1F)=NCc1c(C(=O)NC)ncn1-2"
  Reported value: 1.18
- Compound: "CCCC(=O)c1cc2c(cn1)[nH]c1ccc(F)cc12"
  Reported value: 0.57
- Compound: "Cc1nnc2n1-c1ccc(Br)cc1C(c1ccccc1F)=NC2 [JYI-57]"
  Reported value: -1.12
